These entries and their values trace back to the supplement of paper PMC9170038.

This section presents sequences with their documented apparent KD of MS2 coat protein values.
Tested on: MS2 coat protein
Test: apparent KD of MS2 coat protein; higher = weaker reporter binding
Conditions: Eterna round: R107; input ligand: tryptophan 2.4 mM

| BIOSEQUENCE | TEST SYSTEM | apparent KD of MS2 coat protein [nM] |
| --- | --- | --- |
| UGGCAAGAGGGAAGGAGCGUCAGCUGAGUCACAUGAGGAUCACCCAUGUCGCACAUAGUGUGACAGGUAGGUCGCCCUCUGCCGU [Vesosocera] | MS2 coat protein | 122 |
| GGACAUGCAGGAAGGAGCGACACGCAGAAACUGCAAAAUCCUCCACACGAGGAUCACCCGUGUCAGGUAGGUCGCCUGCAUGUCG [ArgXB 15 #Zipper #MS2Left #StaticStem #Blueprint] | MS2 coat protein | 110 |
| AGAACAAAACUAAAUAAACAACUGGGUGAUACCAGCACAUGUGCGUGCCCUUGGCAGCAUCCGGCCACAUGAGGAUCACCCAUGU [Inarar] | MS2 coat protein | 62.7 |
| AUAACAUGAGGAUCACCCAUGUAAGCUGAAGGAGCGGACGAAAGUCCAGGUAGGUCGCAGCACUCCUUCAACAUGGGAGAGGGAG [(M1)-(M2)-(Arg1)-(Arg2)-(A)'-(M)'-(A)''_Design1] | MS2 coat protein | 53.2 |
| UAACAUGAGGAUCACCCAUGUUUGAAGGAACGAGGACCGGUACGGCCGCCACUCGACGAGUGGAUGAGAAGUGGGAUUGUGUGCU [Same State Trp A GF8] | MS2 coat protein | 15.2 |
| ACAUGAGGAUCACCCAUGUGAUGGCACGAUACCAGCUGAUCCCGUGGCCCUUGGCAGCGUCCGGUGUGGUCCGGCGGGUGGGACG [qqwmullin] | MS2 coat protein | 21.2 |
| GAAGCUCGCGAUGAUACCAGCUCGACUGAUAACAUGAGGAUCACCCAUGUUGUGCGCCCUAGCCCUUGGCAGCAUGACAUAUUCG [theeternabot_sameState_MS2_Theo_B_46] | MS2 coat protein | 97.8 |
| CAUACUUGAUCCUAUGAGCCUAUUUGUGAUACCAGCAUCUAAAUUUGCCCUUGGCAGCACUAACAUGAGGAUCACCCAUGUUAUA [JR_Nu_ExcTheophyA_Sub028] | MS2 coat protein | 37 |
| CCUGAUGAGUCGGCCGCCACUCCAGUUGUAUUACAGGUUUUCGUAGACAUGAGGAUCACCCAUGUGAGGACCGGGACACACACAG [theeternabot_exclusion_MS2_Trp_B_21] | MS2 coat protein | 17.2 |
| AAACGUUGCUGCGAUACCAGACAUGAGGAUCACCCAUGUACCAAGGUACGAAAAUAACAUGUCCCUUGGCAGCGCAGCAACGAAA [MAT - Exclusion Theophlline B - Mod of Eli - D6] | MS2 coat protein | 14.5 |
| CCGCACAUGAGGAUCACCCAUGUCAGGGAUACCAGCCCAGACAUGGGCCCUUGGCAGCUUUGUAGCUGACGAAAGUCAGCAGCGG [Omei Theo A SS A v2] | MS2 coat protein | 59.2 |

----------
Tested on: K4 kissing-loop RNA reporter;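 further: bound reporter read as fluorescence of individual clusters on recovered sequencing chips by microscopy, with normalized cluster intensities fitted with a binding model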
Test: apparent KD of K4 kissing-loop reporter; higher = weaker reporter binding
Details: Eterna round: R107; input ligand: arginine 13.2 mM

| BIOSEQUENCE | TEST SYSTEM | MEASUREMENT UNIT | apparent KD of K4 kissing-loop reporter |
| --- | --- | --- | --- |
| CCAGAAUGAUGAGGAUGAUAAAUUACUGAAGGAGCGCAUAUAGUUGCAGGUAGGUCGCGGUGAAUAAGUAUAGUGAUGUUAUACC [SSArgA.Ab] | K4 kissing-loop RNA reporter | nM | 327 |
| UAAUGUGGCACAGGAUAUACUGAUUGGAGUGAUGUUCCAAACAUGAACAAGAGACUUUUACAAGAAGUAGAAGGGUGUUAGAUAU [Exclusion FMN B GF 19] | K4 kissing-loop RNA reporter | nM | 265 |
| GGAUAGGACAGAGGAUAUGGUAGUGAUGUUACCAAACUGGUUAUCAAUGUUAGAAAAUUGACAAAACCAGAAGGCUGUCCUAUCG [KL-XFMN-B15] | K4 kissing-loop RNA reporter | nM | 65.6 |
